Please provide measured z-score for the entries that follow.
- experimental_details: P. aeruginosa biofilm formation inhibitors, primary screen, strain PAO1, LB-PBS medium, absorbance 600 nm (AID 1176); also: test concentration not given here
- cond: P. aeruginosa PAO1 growth/biofilm, A600, 12 h; higher = more signal
Numbers only.

Batch of 4 compounds: report z-score for each.
1. CC(C)OC(=O)C=C1C[C@@H](c2ccccc2C(F)(F)F)O[C@@H](c2ccccc2C(F)(F)F)O1
2. CCCC[C@H]1OB(O)C[C@H]2C1=C(COc1ccccc1)C[C@H]1C(=O)N(C)C(=O)[C@H]12
3. COc1ccc(C(O)C2C=CC3C(=O)N(C)C(=O)C3N2N2CCCCC2)c2ccccc12 (stereo unspecified)
4. O=C1O[C@H](c2ccccc2)[C@H](c2ccccc2)N2[C@H]1[C@@H](C(=O)O)[C@]1(C(=O)Nc3ccc(C#CCCO)cc31)[C@H]2c1ccc(O)cc1

**A:**
-0.212
-0.0946
0.503
0.0568

Where do the numbers come from? From PubChem BioAssay.
